- targetSystem: equine FcRn (large alpha subunit p51) / equine beta-2-microglobulin complex, biotinylated (equine) (UniProt P30441)
- protocolNotes: SPR (Biacore), pH 6
Consider the following binders and their measured pKd readings.
Please treat pKd as minus the base-10 logarithm of the molar concentration.

Below: 7 binders and their reported pKd.
{"columns": ["binder", "measuredResult"],
 "data": [
  ["equine IgG4 M428Y (antibody, part only; not given: variable domains, not shown: another chain or arm of the molecule) constant: ASTTAPKVFPLASHSAATSGSTVALGCLVSSYFPEPVTVSWNSGALTSGVHTFPSVLQSSGLYSLSSMVTVPASSLKSQTYICNVAHPASSTKVDKKIVIKECNGGCPAECLQVGPSVFIFPPKPKDVLMISRTPTVTCVVVDVGHDFPDVQFNWYVDGVETHTATTEPKQEQFNSTYRVVSVLPIQHKDWLSGKEFKCKVNNKALPAPVERTISKPTGQPREPQVYVLAPHRDELSKNKVSVTCLVKDFYPTDIDIEWKSNGQPEPETKYSTTPAQLDSDGSYFLYSKLTVETNRWQQGTTFTCAVYHEALHNHYTEKSVSKSPGK", 7.51],
  ["equine IgG4 N434D (antibody, part only; not given: Variable domains, not shown: another chain or arm of the molecule) constant: ASTTAPKVFPLASHSAATSGSTVALGCLVSSYFPEPVTVSWNSGALTSGVHTFPSVLQSSGLYSLSSMVTVPASSLKSQTYICNVAHPASSTKVDKKIVIKECNGGCPAECLQVGPSVFIFPPKPKDVLMISRTPTVTCVVVDVGHDFPDVQFNWYVDGVETHTATTEPKQEQFNSTYRVVSVLPIQHKDWLSGKEFKCKVNNKALPAPVERTISKPTGQPREPQVYVLAPHRDELSKNKVSVTCLVKDFYPTDIDIEWKSNGQPEPETKYSTTPAQLDSDGSYFLYSKLTVETNRWQQGTTFTCAVMHEALHDHYTEKSVSKSPGK", 7.41],
  ["equine IgG1 M428I (antibody, part only; not given: variable domains, not shown: another chain or arm of the molecule) constant: ASTTAPKVFALAPGCGTTSDSTVALGCLVSGYFPEPVKVSWNSGSLTSGVHTFPSVLQSSGFYSLSSMVTVPASTWTSETYICNVVHAASNFKVDKRIEPIPDNHQKVCDMSKCPKCPAPELLGGPSVFIFPPNPKDTLMITRTPEVTCVVVDVSQENPDVKFNWYMDGVEVRTATTRPKEEQFNSTYRVVSVLRIQHQDWLSGKEFKCKVNNQALPQPIERTITKTKGRSQEPQVYVLAPHPDELSKSKVSVTCLVKDFYPPEINIEWQSNGQPELETKYSTTQAQQDSDGSYFLYSKLSVDRNRWQQGTTFTCGVIHEALHNHYTQKNVSKNPGK", 7.55],
  ["equine IgG1 G426Y (antibody, part only; not given: variable domains, not shown: another chain or arm of the molecule) constant: ASTTAPKVFALAPGCGTTSDSTVALGCLVSGYFPEPVKVSWNSGSLTSGVHTFPSVLQSSGFYSLSSMVTVPASTWTSETYICNVVHAASNFKVDKRIEPIPDNHQKVCDMSKCPKCPAPELLGGPSVFIFPPNPKDTLMITRTPEVTCVVVDVSQENPDVKFNWYMDGVEVRTATTRPKEEQFNSTYRVVSVLRIQHQDWLSGKEFKCKVNNQALPQPIERTITKTKGRSQEPQVYVLAPHPDELSKSKVSVTCLVKDFYPPEINIEWQSNGQPELETKYSTTQAQQDSDGSYFLYSKLSVDRNRWQQGTTFTCYVMHEALHNHYTQKNVSKNPGK", 7.92],
  ["equine IgG1 T286M (antibody, part only; not given: variable domains, not shown: another chain or arm of the molecule) constant: ASTTAPKVFALAPGCGTTSDSTVALGCLVSGYFPEPVKVSWNSGSLTSGVHTFPSVLQSSGFYSLSSMVTVPASTWTSETYICNVVHAASNFKVDKRIEPIPDNHQKVCDMSKCPKCPAPELLGGPSVFIFPPNPKDTLMITRTPEVTCVVVDVSQENPDVKFNWYMDGVEVRMATTRPKEEQFNSTYRVVSVLRIQHQDWLSGKEFKCKVNNQALPQPIERTITKTKGRSQEPQVYVLAPHPDELSKSKVSVTCLVKDFYPPEINIEWQSNGQPELETKYSTTQAQQDSDGSYFLYSKLSVDRNRWQQGTTFTCGVMHEALHNHYTQKNVSKNPGK", 7.81],
  ["equine IgG1 Q311I (antibody, part only; not given: variable domains, not shown: another chain or arm of the molecule) constant: ASTTAPKVFALAPGCGTTSDSTVALGCLVSGYFPEPVKVSWNSGSLTSGVHTFPSVLQSSGFYSLSSMVTVPASTWTSETYICNVVHAASNFKVDKRIEPIPDNHQKVCDMSKCPKCPAPELLGGPSVFIFPPNPKDTLMITRTPEVTCVVVDVSQENPDVKFNWYMDGVEVRTATTRPKEEQFNSTYRVVSVLRIQHIDWLSGKEFKCKVNNQALPQPIERTITKTKGRSQEPQVYVLAPHPDELSKSKVSVTCLVKDFYPPEINIEWQSNGQPELETKYSTTQAQQDSDGSYFLYSKLSVDRNRWQQGTTFTCGVMHEALHNHYTQKNVSKNPGK", 7.90],
  ["equine IgG4 T286A (antibody, part only; not given: variable domains, not shown: another chain or arm of the molecule) constant: ASTTAPKVFPLASHSAATSGSTVALGCLVSSYFPEPVTVSWNSGALTSGVHTFPSVLQSSGLYSLSSMVTVPASSLKSQTYICNVAHPASSTKVDKKIVIKECNGGCPAECLQVGPSVFIFPPKPKDVLMISRTPTVTCVVVDVGHDFPDVQFNWYVDGVETHAATTEPKQEQFNSTYRVVSVLPIQHKDWLSGKEFKCKVNNKALPAPVERTISKPTGQPREPQVYVLAPHRDELSKNKVSVTCLVKDFYPTDIDIEWKSNGQPEPETKYSTTPAQLDSDGSYFLYSKLTVETNRWQQGTTFTCAVMHEALHNHYTEKSVSKSPGK", 7.31]
]}

Moving on to the next binder.
q: Identify pKd associated with the binder equine IgG4 Y436T (antibody, part only; not given: variable domains, not shown: another chain or arm of the molecule) constant: ASTTAPKVFPLASHSAATSGSTVALGCLVSSYFPEPVTVSWNSGALTSGVHTFPSVLQSSGLYSLSSMVTVPASSLKSQTYICNVAHPASSTKVDKKIVIKECNGGCPAECLQVGPSVFIFPPKPKDVLMISRTPTVTCVVVDVGHDFPDVQFNWYVDGVETHTATTEPKQEQFNSTYRVVSVLPIQHKDWLSGKEFKCKVNNKALPAPVERTISKPTGQPREPQVYVLAPHRDELSKNKVSVTCLVKDFYPTDIDIEWKSNGQPEPETKYSTTPAQLDSDGSYFLYSKLTVETNRWQQGTTFTCAVMHEALHNHTTEKSVSKSPGK
a: 7.57

Reference for the values: patent US20260070987A1
